Tested on: LXRa homodimer (NR concentration 270 nM)
Assay: PBM binding z-score (relative to random genomic background probes); higher = stronger binding; sequences stand for … in GC…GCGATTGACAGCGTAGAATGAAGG
Dear colleague, classification is by PBM binding z-score, with ranges listed here: low-valued: < 0.06; mid-valued: ≥ 0.06 and < 0.5; high-valued: ≥ 0.5

# query_sequence, class_name
rows = [
    ("CCTCGGACGACAACAGGAGGTCAGAGCTGCCAGA", "high-valued"),
    ("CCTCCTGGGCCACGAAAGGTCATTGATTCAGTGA", "high-valued"),
    ("CGAACTAGGTCATCCAGGGCAGTGAATACATTGA", "mid-valued"),
    ("ATACCAAGGTGATCGTGTGGTCGTTGATACTAAC", "low-valued"),
    ("TCATATAGGTACTACAGGTGAAAGTCGGCATCTA", "high-valued"),
]

Entry ATCGAAAGGTCGCGGTGAGTATAGAGAAAGGGAA belongs to which category?
mid-valued

Then CCAACTGGGGCAAGGTTACCATAACGCACAGCCA ?
low-valued

Next sequence up: CTCGAAAGGTCGGTTAAGGTGAGTATACGGATAA
mid-valued

Request: GCATATAGGTAATAGAAGGTGAAAGTCCGATTGT
mid-valued

Moving on to the next sequence: CCGAGTAGTTTATGGGGCATTCAGGCAACGGTGA
low-valued

Another sequence: CCTTACGGGTCACTGACAGGTTATAGTATTTGGA
mid-valued

----------
System: LXRa:RXRa (NR concentration 270 nM, RXRa partner concentration 90 nM)
Test: PBM binding z-score (relative to random genomic background probes); higher = stronger binding; sequences stand for … in GC…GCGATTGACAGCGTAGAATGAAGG
Kindly return Criterion met if reported PBM binding z-score is no lower than 3; return Criterion not met if it is lower.

Please review the following examples before continuing.
# query_sequence, assay_target, class_name
measured = [
    ("CGAACTAGGTCATCCAGGACAGTGTATACATTGA", "LXRa:RXRa (NR concentration 270 nM, RXRa partner concentration 90 nM)", "Criterion not met"),
    ("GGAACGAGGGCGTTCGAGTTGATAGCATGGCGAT", "LXRa:RXRa (NR concentration 270 nM, RXRa partner concentration 90 nM)", "Criterion not met"),
    ("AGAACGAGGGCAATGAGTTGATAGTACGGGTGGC", "LXRa:RXRa (NR concentration 270 nM, RXRa partner concentration 90 nM)", "Criterion not met"),
    ("ATCCAAAGGTCGACGAGGTGAGTATACACCGTTT", "LXRa:RXRa (NR concentration 270 nM, RXRa partner concentration 90 nM)", "Criterion met"),
    ("TCATATTGGTAAACAGGTGAAAGTCCGTAAGTTA", "LXRa:RXRa (NR concentration 270 nM, RXRa partner concentration 90 nM)", "Criterion not met"),
    ("CCTTACGGGTCACTCCGGGTTATAGCATCGGAGT", "LXRa:RXRa (NR concentration 270 nM, RXRa partner concentration 90 nM)", "Criterion met"),
    ("AGAATGAGGTTACCAAATATCAGGGAAACGCTTG", "LXRa:RXRa (NR concentration 270 nM, RXRa partner concentration 90 nM)", "Criterion not met"),
    ("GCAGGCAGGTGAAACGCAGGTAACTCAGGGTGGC", "LXRa:RXRa (NR concentration 270 nM, RXRa partner concentration 90 nM)", "Criterion not met"),
]

Answer whether PBM binding z-score of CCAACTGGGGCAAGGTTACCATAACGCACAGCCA is greater than or equal to 3.
Criterion not met

Next sequence: CGAACTAGGTCATCCAGGACAGTCAATACATTGA
Criterion met

Try this sequence too: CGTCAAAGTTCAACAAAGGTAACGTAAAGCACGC
Criterion met

Entry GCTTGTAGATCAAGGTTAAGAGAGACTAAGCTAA please
Criterion not met
